Where these numbers come from: patent US8877946B2

# Tested on: HuH7 cells
# EXPERIMENTAL_DETAILS: MTT antiproliferative (growth inhibition) assay on HuH7 cells
# Assay type: cell-based, human
# RUN_CONDITIONS: Homo sapiens, Huh-7, MTT, 72 h incubation, mean and SD of 3 or more independent determinations (Tables 1-8), read-out: IC 50
READOUT_KIND: IC50

# value lookup — system HuH7 cells, readout IC50, item O=C1Nc2ccc(F)cc2/C1=C\c1ccc(C(F)(F)F)cc1
9.31 µM

# value lookup — system HuH7 cells, readout IC50, item COc1cccc(/C=C2/C(=O)Nc3cc(Cl)ccc32)c1
12.2 µM

# value lookup — system HuH7 cells, readout IC50, item COc1ccc2c(c1)NC(=O)/C2=C/c1ccccc1
0.94 µM

# value lookup — system HuH7 cells, readout IC50, item CN1C(=O)/C(=C/c2cccc(C(F)(F)F)c2)c2ccc(Cl)cc21 [Compound 1-10, reference compound]
0.46 µM

# value lookup — system HuH7 cells, readout IC50, item O=C1Nc2cc(Cl)ccc2/C1=C\c1ccccc1C(F)(F)F
24.1 µM

# value lookup — system HuH7 cells, readout IC50, item O=C1Nc2cc(F)c(F)cc2/C1=C\c1ccc(C(F)(F)F)cc1
10.6 µM

# value lookup — system HuH7 cells, readout IC50, item O=C1Nc2ccc(Cl)cc2/C1=C\c1ccccc1
21.3 µM

# value lookup — system HuH7 cells, readout IC50, item O=C1Nc2cc(F)ccc2/C1=C\c1cccc(C(F)(F)F)c1 [Compound 3-6, reference compound]
1.41 µM

# value lookup — system HuH7 cells, readout IC50, item O=C1Nc2cc(F)c(F)cc2/C1=C\c1cccc(C(F)(F)F)c1
0.82 µM

# value lookup — system HuH7 cells, readout IC50, item CS(=O)(=O)c1cccc(C=C2C(=O)Nc3ccc(F)c(F)c32)c1 (mixture of isomers)
13.9 µM

# value lookup — system HuH7 cells, readout IC50, item CCNS(=O)(=O)c1cccc(/C=C2/C(=O)Nc3cc(Cl)ccc32)c1
0.84 µM

# value lookup — system HuH7 cells, readout IC50, item O=C1Nc2ccc(F)c(F)c2C1=Cc1ccccc1C(F)(F)F (mixture of isomers)
> 30 µM

# value lookup — system HuH7 cells, readout IC50, item O=C1Nc2ccc(Cl)cc2/C1=C\c1ccccc1C(F)(F)F
> 30 µM

# value lookup — system HuH7 cells, readout IC50, item O=C1Nc2ccc(F)cc2/C1=C\c1cccc(F)c1
13.3 µM

# value lookup — system HuH7 cells, readout IC50, item O=C1Nc2ccc(Cl)cc2C1=Nc1cccc(C(F)(F)F)c1
20.3 µM

# value lookup — system HuH7 cells, readout IC50, item O=C1Nc2cc(Cl)ccc2/C1=C\c1cccc(OC(F)(F)F)c1
5.06 µM

# value lookup — system HuH7 cells, readout IC50, item O=C1Nc2ccc(Cl)cc2/C1=C\c1ccc(F)c(F)c1
11.4 µM

# value lookup — system HuH7 cells, readout IC50, item CNS(=O)(=O)c1cccc(/C=C2/C(=O)Nc3ccc(Cl)cc32)c1
3.13 µM

###

# Tested on: HuH7 cells
# EXPERIMENTAL_DETAILS: MTT antiproliferative (growth inhibition) assay on HuH7 cells
# Assay type: cell-based, human
# RUN_CONDITIONS: Homo sapiens, Huh-7, MTT, 72 h incubation, mean and SD of 3 or more independent determinations (Tables 1-8), read-out: IC 50
Please respond with reported pIC50 for every item in the list.
The read-out pIC50 is expressed as -log10 of concentration in moles per litre.

Could you tell me which pIC50 is on file for CNS(=O)(=O)c1cccc(/C=C2/C(=O)Nc3cc(Cl)ccc32)c1 [Compound 1-18] ?
6.27

Could you tell me which pIC50 is on file for CCCNS(=O)(=O)c1cccc(C=C2C(=O)Nc3cc(F)ccc32)c1 [Compound 3-12] ?
6.92

Could you tell me which pIC50 is on file for O=C1Nc2ccc(F)c(F)c2/C1=C/c1ccccc1F [Compound 6-2] ?
4.77

###

# Tested on: HuH7 cells
# EXPERIMENTAL_DETAILS: MTT antiproliferative (growth inhibition) assay on HuH7 cells
# Type: cell-based, human
# RUN_CONDITIONS: Homo sapiens, Huh-7, MTT, 72 h incubation, mean and SD of 3 or more independent determinations (Tables 1-8), read-out: IC 50
READOUT_KIND: IC50

Could you tell me which IC50 is on file for O=C1Nc2cc(F)ccc2/C1=C\c1ccccc1C(F)(F)F [Compound 3-5] ?
> 30 µM

Could you tell me which IC50 is on file for O=C1Nc2ccc(Cl)cc2/C1=C\c1ccccc1F [Compound 2-2] ?
> 30 µM

Could you tell me which IC50 is on file for O=C1Nc2ccc(F)cc2/C1=C\c1ccccc1F [Compound 4-2] ?
> 30 µM

Could you tell me which IC50 is on file for O=C1Nc2ccc(F)c(F)c2/C1=C/c1ccc(C(F)(F)F)cc1 [Compound 6-7] ?
> 30 µM

Could you tell me which IC50 is on file for O=C1Nc2cc(F)c(F)cc2/C1=C\c1ccccc1F [Compound 7-2] ?
> 30 µM

Could you tell me which IC50 is on file for O=C1Nc2cc(F)c(F)cc2/C1=C\c1ccccc1 [Compound 7-1] ?
> 30 µM
